# experimentDescription: Cytotoxicity against human MT4 cells assessed as reduction of cell viability
# Format: cell-based
The following compounds are shown together with reported CC50 values.
recordedMetric: CC50 (µM)

samplesmiles=C[C@H](NC(=O)[C@H](CCCNC(=N)N)NC(=O)c1ccc(CN(CCc2ccncc2)Cc2ccc(F)cc2)cc1)c1cccc2ccccc12 recordedmetric=CC50 quantitativeresult=44
samplesmiles=C[C@@H](NC(=O)[C@H](CCCNC(=N)N)NC(=O)c1ccc(CN(CCc2ccccn2)Cc2ccc(F)cc2)cc1)c1cccc2ccccc12 recordedmetric=CC50 quantitativeresult=23
samplesmiles=C[C@H](NC(=O)[C@H](CCCNC(=N)N)NC(=O)c1ccc(CN(Cc2ccc(F)cc2)Cc2ccccn2)cc1)c1cccc2ccccc12 recordedmetric=CC50 quantitativeresult=11
samplesmiles=C[C@@H](NC(=O)[C@H](CCCNC(=N)N)NC(=O)c1ccc(CN(CCc2ccc(F)cc2)Cc2cccnc2)cc1)c1cccc2ccccc12 recordedmetric=CC50 quantitativeresult=47
samplesmiles=C[C@@H](NC(=O)[C@H](CCCNC(=N)N)NC(=O)c1ccc(CN(Cc2ccncc2)C(=O)c2ccc(F)cc2)cc1)c1cccc2ccccc12 recordedmetric=CC50 quantitativeresult=45
samplesmiles=C[C@@H](NC(=O)[C@H](CCCNC(=N)N)NC(=O)c1ccc(CN(Cc2ccncc2)Cc2ccc(F)cc2)cc1)c1cccc2ccccc12 recordedmetric=CC50 quantitativeresult=39
samplesmiles=C[C@@H](NC(=O)[C@H](CCCNC(=N)N)NC(=O)c1ccc(CN(Cc2ccccn2)C(=O)c2ccc(F)cc2)cc1)c1cccc2ccccc12 recordedmetric=CC50 quantitativeresult=38

###

Parameter CC50: see the listing below.
# experimentDescription: Cytotoxicity against human MT4 cells assessed as reduction of cell viability
# Format: cell-based
recordedMetric: CC50

samplesmiles=C[C@H](NC(=O)[C@H](CCCNC(=N)N)NC(=O)c1ccc(CN(CCc2ccncc2)C(=O)c2ccc(F)cc2)cc1)c1cccc2ccccc12 recordedmetric=CC50 result="47 µM"
samplesmiles=C[C@@H](NC(=O)[C@H](CCCNC(=N)N)NC(=O)c1ccc(CN(CCc2ccccn2)C(=O)c2ccc(F)cc2)cc1)c1cccc2ccccc12 recordedmetric=CC50 result="41 µM"
samplesmiles=C[C@H](NC(=O)[C@H](CCCNC(=N)N)NC(=O)c1ccc(CN(Cc2ccncc2)C(=O)c2ccc(F)cc2)cc1)c1cccc2ccccc12 recordedmetric=CC50 result="51 µM"
samplesmiles=C[C@@H](NC(=O)[C@H](CCCNC(=N)N)NC(=O)c1ccc(CN(Cc2ccc(F)cc2)Cc2cccnc2)cc1)c1cccc2ccccc12 recordedmetric=CC50 result="37 µM"
samplesmiles=C[C@H](NC(=O)[C@H](CCCNC(=N)N)NC(=O)c1ccc(CN(CCc2ccc(F)cc2)Cc2ccccn2)cc1)c1cccc2ccccc12 recordedmetric=CC50 result="9.9 µM"
samplesmiles=C[C@H](NC(=O)[C@H](CCCNC(=N)N)NC(=O)c1ccc(CN(CCc2cccnc2)Cc2ccc(F)cc2)cc1)c1cccc2ccccc12 recordedmetric=CC50 result="65 µM"
samplesmiles=C[C@H](NC(=O)[C@H](CCCNC(=N)N)NC(=O)c1ccc(CN(CCc2ccc(F)cc2)CCc2ccccn2)cc1)c1cccc2ccccc12 recordedmetric=CC50 result="13 µM"

###

# experimentDescription: Cytotoxicity against human MT4 cells assessed as reduction of cell viability
# Assay type: cell-based
# if measured CC50 < 40 µM: true (1)  # else: false (0)

samplesmiles=C[C@@H](NC(=O)[C@H](CCCNC(=N)N)NC(=O)c1ccc(CN(Cc2cccnc2)C(=O)c2ccc(F)cc2)cc1)c1cccc2ccccc12 labelvalue="false (0)"
samplesmiles=C[C@H](NC(=O)[C@H](CCCNC(=N)N)NC(=O)c1ccc(CN(Cc2ccccn2)C(=O)c2ccc(F)cc2)cc1)c1cccc2ccccc12 labelvalue="true (1)"
samplesmiles=C[C@H](NC(=O)[C@H](CCCNC(=N)N)NC(=O)c1ccc(CN(CCc2ccccn2)Cc2ccc(F)cc2)cc1)c1cccc2ccccc12 labelvalue="true (1)"
samplesmiles=C[C@H](NC(=O)[C@H](CCCNC(=N)N)NC(=O)c1ccc(CN(CCc2ccccn2)C(=O)c2ccc(F)cc2)cc1)c1cccc2ccccc12 labelvalue="false (0)"
samplesmiles=C[C@H](NC(=O)[C@H](CCCNC(=N)N)NC(=O)c1ccc(CN(Cc2cccnc2)C(=O)c2ccc(F)cc2)cc1)c1cccc2ccccc12 labelvalue="false (0)"
samplesmiles=C[C@@H](NC(=O)[C@H](CCCNC(=N)N)NC(=O)c1ccc(CN(Cc2ccc(F)cc2)Cc2ccccn2)cc1)c1cccc2ccccc12 labelvalue="true (1)"
